Tested on: RXF 393 renal
testDetails: NCI tumour cell line growth inhibition, 48 h
observable: GI50

## Input Field: GI50 (RXF 393 renal). Entry: `COc1cc2c(cc1I)-c1c(cc(OC)c(OC)c1OC)CC[C@@H]2NC(C)=O`
## Output 0.211 µM

## Input Repeat with `O=C1C=CC(=O)c2cc3cc(CO)ccc3cc21`
## Output 14.6 µM

## Input Repeat with `CCn1c(=O)c(Oc2ccc(F)cc2F)cc2cnc(NC3CCOCC3)nc21`
## Output > 18.7 µM

## Input Repeat with `CCC[CH2][Sn]1([CH2]CCC)[O]C(=O)c2cccc(C)c2[O]1`
## Output 0.29 µM

## Input Repeat with CCO/C=N/C1=C(C#N)C(c2ccc(OC)cc2)c2sc3c(F)cccc3c2O1 (centres undefined)
## Output 2 µM

## Input Repeat with `O=C([O-])c1cc(I)cc(I)c1[OH2+].O=C([O-])c1cc(I)cc(I)c1[OH2+].[Mn+2]`
## Output 17.8 µM

## Input Repeat with `C[n+]1c(-c2ccccc2)c2cc(N)ccc2c2ccccc21`
## Output 26.3 µM

## Input Repeat with `COc1cc(-c2ccc(-c3ccc(C(=N)N)cc3)s2)cc(OC)c1OC`
## Output 2.1 µM

## Input Repeat with `Nc1nc(N)c(N=Nc2ccccc2)c(-c2ccccc2)n1`
## Output 3.42 µM

## Input Repeat with `COc1ccc(CC(C)=C(c2ccc(OCCN3CCCCCC3)cc2)c2ccc(OCCN3CCCCCC3)cc2)cc1`
## Output 0.348 µM

## Input Repeat with `Clc1ccc(OCc2nn3c(CCCCc4nnc5sc(COc6ccc(Cl)cc6Cl)nn45)nnc3s2)c(Cl)c1`
## Output 83.9 µM

## Input Repeat with CCCCCCCCCCS(=O)CC(CO)NC(=O)/C=C/c1c(C)[nH]c(=O)[nH]c1=O (centres undefined)
## Output 10 µM

## Input Repeat with `C#CCn1cnc2cnc(Nc3cccc(NC(=O)CCl)c3)nc21`
## Output 10.1 µM

## Input Repeat with `O=C1Nc2ccccc2/C1=C\c1c(Cl)nc2sccn12`
## Output 3.2 µM
